Origin of measurements: the Human Domainome abundance scans (Beltran et al. 2025)

B1: POU domain, class 4, transcription factor 2, residues 256 to 327; numbered along this chain, Q12837 (parent)
chain: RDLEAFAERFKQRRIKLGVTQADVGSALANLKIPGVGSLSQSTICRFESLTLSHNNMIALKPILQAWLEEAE

Variants of: B1
Test: abundance fitness (aPCA) (normalised: wild type 0, dead -1); higher = more abundant; growth selection in yeast, the domain comes from the species named
Conditions: Homo sapiens
abundance fitness values for the variants below.
Recorded endpoint: abundance fitness

- RDLEAFAERFKQRRIKLGVTQAVVGSALANLKIPGVGSLSQSTICRFESLTLSHNNMIALKPILQAWLEEAE [D23V]: -0.403
- RDLEAFAERFKQRRIKLGVTQADVGSALANCKIPGVGSLSQSTICRFESLTLSHNNMIALKPILQAWLEEAE [L31C]: -0.102
- RDLEAFAERFKQRRIKLGVTQADVGSALANLKIPKVGSLSQSTICRFESLTLSHNNMIALKPILQAWLEEAE [G35K]: -0.389
